Tested on: SK-MEL-2 melanoma
runDescription: NCI-60 one-dose screen, 48 h
protocolConditions: 10 µM
This is part of a sample that, as a whole, favours compounds with a hit. Of some 83,000 tested, about 20% had one in any assay. Calls of active or inactive are those of the source. How the source made its calls: active means growth percent below 10; inactive means the rest.
Valid outcomes are listed here; reply with one: y (active), n (inactive)

These solved cases illustrate the format of a correct answer.
cpdSmiles | labelValue
CCCCCCCCCCCCCCCCCCCC(=O)NCCc1c[nH]c2ccc(O)cc12 | n
COc1ccc(-c2ccc(SCC(=O)Nc3ccc(C#N)cc3)nn2)cc1 | n

Per the assay record, what outcome was assigned to C#CCNC(=O)[C@]12CCC(C)(C)C[C@H]1C1=CC[C@@H]3[C@@](C)(CCC#N)[C@H](C(=C)C)CC[C@@]3(C)[C@]1(C)CC2 ?
n

Just curious, what result did CCOc1ccc(/C=N/NC(=O)Cn2nc(Cc3ccc([N+](=O)[O-])cc3)c3onc(C)c3c2=O)cc1 get here?
n

# fetch the recorded call for Cc1cc2c(c(O)c1Br)-c1ncoc1C(=O)[C@]1(C)CC[C@H](C(C)C)[C@H]21 here
y

For Nc1cccnc1/C=N/NC(=S)NCCNC(=O)c1ccc(-n2nc(-c3ccccc3O)nc2-c2ccccc2O)cc1 , what call appears in the results of this test?
y

Test call for this molecule, please: COc1ccc2[nH]cc(/C=N/Nc3cccc(Cl)n3)c2c1
n

Recorded test call requested for C#Cc1ccc(S(=O)(=O)Nc2cccc(-c3csc(NC(C)=O)n3)c2)cc1
n

What classification did N#Cc1ccc(-c2nn(-c3ccc(C(=O)O)cc3)cc2CNc2cc(Cl)cc(C(F)(F)F)c2)cc1 end up with in this test?
y

---

Test system: NCI-H226 lung
runDescription: NCI-60 one-dose screen, 48 h
protocolConditions: 10 µM
Compounds without any hit were thinned out: in the full panel of roughly 83,000, 20% have a hit. Activity calls are given as the source filed them. How the source made its calls: active means growth percent below 10; inactive means the rest.
Respond only with the outcome that fits, drawn from yes (1) for active, no (0) for inactive

Please indicate how the test categorized Cc1ccc(CNC(=O)Cc2ccc3c(c2)CN(C2CCC(=O)NC2=O)C3=O)cc1 (stereo not drawn) .
yes (1)

Please let me know the test result on file for CN1CCN(c2ccc(C(=O)/C=C/c3ccc(OC(F)F)cc3)cc2)CC1 .
no (0)

Per the records of this test, what outcome belongs to C#Cc1ccc(S(=O)(=O)Nc2cccc(-c3csc(NC(C)=O)n3)c2)cc1 ?
no (0)

Give the logged outcome of this assay for the following compound: CC(=C(c1ccc(OCCN2CCCCC2)cc1)c1ccc(OCCN2CCCCC2)cc1)c1ccccc1
no (0)

Field: outcome | Entry: Cc1ccc(NC(=O)c2ccc(-n3c(=O)[nH]c4ccccc4c3=O)cc2)cc1
no (0)

Look up the recorded call for CC(=O)OC[C@@]1(C)C2CC[C@]3(C)C(CC=C4C5CC(C)(C)CC[C@]5(C(=O)Nc5ccccc5)CC[C@]43C)[C@@]2(C)C[C@@H](OC(C)=O)[C@@H]1OC(C)=O (stereo partly drawn) in this test.
no (0)

Returns: the outcome recorded for CCOC(=O)C1=C(N)N(c2ccc(C)cc2)C2=C(C(=O)CC(C)(C)C2)C1c1ccccc1OC (stereo not drawn) in this assay.
no (0)

What call does the record list for CC(=O)Nc1nc(-c2ccc(N3CCN(C)CC3)c(NS(=O)(=O)c3ccc(C(F)(F)F)cc3)c2)cs1 ?
no (0)

---

Tested on: HCT-116 colon
runDescription: NCI-60 one-dose screen, 48 h (100 = growth as untreated, 0 = no growth, -100 = all killed)
protocolConditions: 10 µM
About 83,000 compounds went through this panel and 20% of them were active in at least one assay; those are over-represented in the sample as a whole.
Quick rule for you: growth under 20% gets class 1, anything else gets class 0.

Answered examples (3):
compound | assayTarget | labelValue
O=C1Nc2ccc(Cl)cc2/C1=C/c1ccc(OCc2ccc(Br)cc2F)cc1 | HCT-116 colon | class 1
COC(=O)C(Cc1ccc(O)c(O)c1)NC(=O)C(CSC/C=C(\C)CCCC(C)CCCC(C)CCCC(C)C)NC(C)=O (centres undefined) | HCT-116 colon | class 0
CCCCCc1ccc(S(=O)(=O)Nc2cc(-c3csc(N(C)C(C)=O)n3)ccc2N2CCN(C)CC2)cc1 | HCT-116 colon | class 1

Hello, I'm reviewing records and need to know if growth of CC1(C)[C@@H](NCO)CC[C@]2(C)[C@H]3C(=O)C=C4[C@@H]5C[C@](C)(CO)CC[C@]5(C)CC[C@@]4(C)[C@]3(C)CC[C@@H]12 is below 20%. Could you check?
class 0

Field: below-cutoff. Rule: recorded growth strictly less than 20%. Subject: N#Cc1c(-c2ccc(F)cc2)nc(SCc2ccc(F)cc2)nc1N1CCOCC1
class 0

---

Tested on: SK-MEL-5 melanoma
runDescription: NCI-60 one-dose screen, 48 h
protocolConditions: 10 µM
This is part of a sample that, as a whole, favours compounds with a hit. Of some 83,000 tested, about 20% had one in any assay. Activity calls are given as the source filed them. The calls were made as follows: active = growth percent below 10; inactive = the rest.
Write down one outcome, taken from Yes (active), No (inactive)

Recorded results for 3 compounds are shown here.
compound | labelValue
Cc1nc2c(cnn2-c2ccccc2)c(=O)n1-c1ccc(NC(=O)c2ccc(F)cc2)cc1 | Yes
CC(C)c1ccc(C(=O)Nc2sc3c(c2C(N)=O)CCC(=O)C3=O)cc1 | No
COc1ccc(-c2cc(C(=O)N=Nc3c(O)[nH]c4ccc(Br)cc34)c3ccccc3n2)cc1 | No

Given Cc1ccc(-c2cc(C(=O)N=Nc3c(O)[nH]c4ccccc34)c3ccccc3n2)cc1 , state the outcome it received in this test.
No

Assay outcome for Brc1ccc(N/N=C/c2c[nH]c3ccccc23)nc1 : what was it?
No

Which outcome did this test record for the compound CN1C(=O)N(C)C2SC(N/N=C/c3ccc(F)cc3)=NC21 (stereo not given) ?
No

Given NS(=O)(=O)c1ccc(N=Nc2c(O)n(CC(=O)Nc3ccccc3Br)c3ccccc23)cc1 , state the outcome it received in this test.
No

Which outcome was assigned to CN(CCF)c1ccc(/C=C/C(=O)c2ccc(N)cc2O)cc1 in this test?
No

Hey, what did the test say about Cc1nn(-c2ccccc2)c2ncn(CC(=O)N/N=C/c3c[nH]c4ccccc34)c(=O)c12 ?
No

Could you please tell me the result logged for O=C1NC(=NC23CC4CC(CC(C4)C2)C3)N/C1=C\c1ccc2ncsc2c1 in this assay?
Yes

---

Tested on: UO-31 renal
runDescription: NCI-60 one-dose screen, 48 h
protocolConditions: 10 µM
Method: Growth inhibition of the UO-31 human tumor cell line is measured as a screen for anti-cancer activity. Cells are grown in 96 well plates and exposed to the test compound for 48 hours. Compounds are tested at a single concentration, which is 10^-5 M for most compounds. The reported endpoint is percent growth (GI% or GIPRCNT), where numbers from 0 - 100% represent growth inhibition, and numbers from -100% - 0 represent cell death. For example, a value of 40 represents 60% growth inhibition. […]
The panel holds about 83,000 compounds, 20% with a hit somewhere; the sample as a whole holds those more often. The source made the active and inactive calls. Rule for the calls: active = growth percent below 10; inactive = the rest.
Give your call using only these classes: true for active, false for inactive

Here are 8 compounds together with their reported answers.
compound | labelValue
COc1ccc2[nH]c(O)c(N=NC(=O)c3cc(-c4ccc(C)cc4)nc4ccccc34)c2c1 | false
Cc1ccc(S(=O)(=O)c2nc(-c3ccccc3)oc2S(=O)(=O)CC(=O)N2CCCC2)cc1 | true
CC1(C)CC[C@]2(C(=O)NCCCNCCCCNCCCN)CC[C@]3(C)C(=CC[C@@H]4[C@@]5(C)Cc6c([nH]c7ccccc67)C(C)(C)[C@@H]5CC[C@]43C)[C@H]2C1 | false
COc1cccc(-c2ccc(/C=N/NC(=O)c3[nH]c4ccc(Br)cc4c3-c3ccccc3)o2)c1 | false
CC(=O)c1ccc(NC(=O)NCn2c(=O)[nH]c3ccccc3c2=O)cc1 | false
CCOC(=O)C1=C(N)N(c2ccc(Cl)cc2)C2=C(C(=O)CC(C)(C)C2)C1c1ccc(N2CCOCC2)cc1 (stereo not drawn) | false
CC(=C(c1ccc(OCCN2CCCCCC2)cc1)c1ccc(OCCN2CCCCCC2)cc1)c1ccc(Cl)cc1 | true
CNC(=O)c1cc(-c2ccc(NC(=O)Nc3ccc(C)cc3)cc2)nc2cccnc12 | false

# evaluate next
Dear all, I need the recorded test outcome for COc1cc(Cn2c(C(F)(F)F)cc3c(Cl)ncnc32)ccn1 , thank you.
false

---

Test system: KM12 colon
runDescription: NCI-60 one-dose screen, 48 h
protocolConditions: 10 µM
The panel holds about 83,000 compounds, 20% with a hit somewhere; the sample as a whole holds those more often. Activity calls are given as the source filed them. Rule for the calls: active = growth percent below 10; inactive = the rest.
Your reply should match one of these outcome classes. Yes (active), No (inactive)

What classification did COc1ccc(/C=C/C(=O)c2ccc(S(=O)(=O)NCCNc3nc(Nc4ccc(F)cc4)nc(N(C)C)n3)cc2)cc1 end up with in this test?
Yes

Record lookup: outcome of this test for N[C@@H](CSSC[C@H](N)C(=O)Nc1ccc(OCC2CCCC2)cc1)C(=O)Nc1ccc(OCC2CCCC2)cc1 ?
Yes

What is the recorded call for this compound in the test? COc1ccc(CCN2C(=O)/C(=C/c3csc(C#N)n3)SC2=S)cc1OC
No
